- System: Saos-2 tumour cell-induced platelet aggregation in heparinised human platelet-rich plasma
- Format: cell-based
- conditionDescription: heparinised human PRP preincubated with peptide at 37C for 2 min, then Saos-2 cells; n = 6; read-out: IC50 for inhibition of Saos-2 TCIPA
measuredQuantity: IC50
Kindly report the value followed by its unit.

Any idea what its IC50 is? The compound is `N=C(N)NCCC[C@H](NC(=O)CN)C(=O)NCC(=O)N[C@@H](CC(=O)O)C(=O)N[C@@H](CO)C(=O)O`
560 µM
